Data provenance: the NIST ThermoML archive (doi:10.1021/je9010486)

Kindly state mass density for each of the entries shown.
# Assay Procedure: cn = amount concentration of the nth substance listed, in mol/dm3
# Assay Context: 303.15 K; 101 kPa; Liquid; c1 = 0.4
One number for each entry, in kg/m3.

# example entries with known answers
>  <Compound>
OC[C@@H](O)[C@@H](O)[C@H](O)[C@H](O)CO [mannitol] + O

>  <mass density / kg/m3>
1020.16

$$$$
>  <Compound>
OC[C@@H](O)[C@@H](O)[C@H](O)[C@@H](O)CO [D-sorbitol] + O

>  <mass density / kg/m3>
1021.15

$$$$
>  <Compound>
OC[C@@H](O)[C@@H](O[C@H]1O[C@H](CO)[C@@H](O)[C@H](O)[C@H]1O)[C@H](O)[C@@H](O)CO [4-O-α-D-glucopyranosyl-D-glucitol] + O

>  <mass density / kg/m3>
1034.08

$$$$
>  <Compound>
OC[C@@H](O)[C@@H](O)CO [meso-1,2,3,4-butanetetrol] + O

>  <mass density / kg/m3>
1009.58

$$$$

# input for lookup
Quick check: mass density of OC[C@@H](O)[C@H](O)[C@@H](O)CO [xylitol] + O ?
1015.65

====

# Assay Procedure: cn = amount concentration of the nth substance listed, in mol/dm3
# Assay Context: 323.15 K; 101 kPa; Liquid; c1 = 0.4
Kindly state viscosity for each of the entries shown.
One number for each entry, in mPa·s.

# example entries with known answers
>  <Molecule>
OC[C@@H](O)[C@H](O)[C@@H](O)CO [xylitol] + O

>  <Assay Metric>
viscosity

>  <Quantitative Result>
0.6384

$$$$
>  <Molecule>
OC[C@@H](O)[C@@H](O)[C@H](O)[C@H](O)CO [mannitol] + O

>  <Assay Metric>
viscosity

>  <Quantitative Result>
0.6706

$$$$
>  <Molecule>
OC[C@@H](O)[C@@H](O)CO [meso-1,2,3,4-butanetetrol] + O

>  <Assay Metric>
viscosity

>  <Quantitative Result>
0.6171

$$$$
>  <Molecule>
OC[C@@H](O)[C@@H](O)[C@H](O)[C@@H](O)CO [D-sorbitol] + O

>  <Assay Metric>
viscosity

>  <Quantitative Result>
0.6596

$$$$

# input for lookup
Quick check: viscosity of OC[C@@H](O)[C@@H](O[C@H]1O[C@H](CO)[C@@H](O)[C@H](O)[C@H]1O)[C@H](O)[C@@H](O)CO [4-O-α-D-glucopyranosyl-D-glucitol] + O ?
0.7827

====

# Assay Procedure: cn = amount concentration of the nth substance listed, in mol/dm3
# Assay Context: 313.15 K; 101 kPa; Liquid; c1 = 0.7
Kindly return yes (1) if reported viscosity is no lower than 0.9 mPa·s; return no (0) if it is lower.

>  <Molecule>
OC[C@@H](O)[C@@H](O)[C@H](O)[C@H](O)CO [mannitol] + O

>  <Group Label>
yes (1)

$$$$
>  <Molecule>
OC[C@@H](O)[C@@H](O)CO [meso-1,2,3,4-butanetetrol] + O

>  <Group Label>
no (0)

$$$$
>  <Molecule>
OC[C@@H](O)[C@@H](O[C@H]1O[C@H](CO)[C@@H](O)[C@H](O)[C@H]1O)[C@H](O)[C@@H](O)CO [4-O-α-D-glucopyranosyl-D-glucitol] + O

>  <Group Label>
yes (1)

$$$$

API: the following record is the query input.
Is viscosity for OC[C@@H](O)[C@H](O)[C@@H](O)CO [xylitol] + O at or above 0.9 mPa·s?
no (0)
